Every entry's value here was drawn from paper PMC11785687.

tested on: osteosarcoma (MG-63) cell line; experiment: SRB cytotoxicity assay, MG-63 cells; assay type: cell-based, human; details: SRB assay, tested until 100 µM
MEASURED_PARAMETER: inhibition of cell proliferation / cytotoxic effect (in words), MG-63

CC(=O)Nc1cc2c3c(c(C#N)[se]c3n1)N=C(C)N2 = low cytotoxic effects
Nc1nc2[se]c(-c3nc4ccccc4s3)c(N)c2c(N)c1Br = low cytotoxic effects

---

Let's look at some molecules and their measured melting point.

Here's what some known entries look like.
N#Cc1[se]c2nc(N)cc(N)c2c1N = 258 to 260 °C
N#Cc1c([Se][Se]c2nc(N)c(Sc3ccccc3)c(N)c2C#N)nc(N)c(Sc2ccccc2)c1N = 198 to 200 °C
C[Se]c1nc(N)cc(N)c1C#N = 148 to 150 °C
N#Cc1c([Se][Se]c2nc(N)c(Sc3ccc(Cl)cc3)c(N)c2C#N)nc(N)c(Sc2ccc(Cl)cc2)c1N = 236 to 238 °C
N#CC[Se]c1nc(N)c(Br)c(N)c1C#N = 176 to 178 °C

Value of melting point reported for the molecule CN(C)c1cc(N)c(C#N)c([Se][Se]c2nc(N(C)C)cc(N)c2C#N)n1 is 172 to 174 °C

The molecule listed as N#Cc1[se]c2nc(N)c(Br)c(N)c2c1N has a reported melting point of 268 to 270 °C

---

tested on: osteosarcoma (MG-63) cell line; experiment: SRB cytotoxicity assay, MG-63 cells; format: cell-based, human; details: read-out: IC50 values (µM) MG-63; SRB assay, 72 h incubation, mean ± SD
MEASURED_PARAMETER: IC50 (µM)
Kindly provide the numeric value in µM only, without the unit symbol.

Answered examples (3):
N#Cc1[se]c2nc(N)c(N=Nc3ccc(Cl)cc3)c(N)c2c1N [Compound 12d] = 3.93
Cc1ccc(N=Nc2c(N)nc3[se]c(C#N)c(N)c3c2N)cc1 [Compound 12b] = 3.37
N#Cc1[se]c2nc(N)c(N=Nc3ccccc3)c(N)c2c1N [Compound 12a] = 3.45

Let's switch to this compound now.
Simply: COc1ccc(N=Nc2c(N)nc3[se]c(C#N)c(N)c3c2N)cc1 [Compound 12c] , osteosarcoma (MG-63) cell line, IC50 = 3.37

---

test system: prostate cancer (PC-3) cell line; test: SRB cytotoxicity assay, PC-3 cells; format: cell-based, human; details: SRB assay, tested until 100 µM
MEASURED_PARAMETER: inhibition of cell proliferation / cytotoxic effect (in words), PC-3

Nc1nc2[se]c(-c3nc4ccccc4s3)c(N)c2c(N)c1Br [Compound 9] = low cytotoxic effects
CC(=O)Nc1cc2c3c(c(C#N)[se]c3n1)N=C(C)N2 [Compound 11] = low cytotoxic effects

---

tested on: prostate cancer (PC-3) cell line; assay: SRB cytotoxicity assay, PC-3 cells; type: cell-based, human; settings: Homo sapiens, PC-3, 72 h, SRB assay, 72 h incubation, mean ± SD; read-out: IC50 values (µM) PC-3
Recorded measurements of IC50, one per entry
The reply should be a number in µM, with the unit left off.

COc1cccc2c1C(=O)c1c(O)c3c(c(O)c1C2=O)C[C@@](O)(C(=O)CO)C[C@@H]3O[C@H]1C[C@H](N)[C@H](O)[C@H](C)O1 [DOX, doxorubicin, reference compound] = 7.6

Attention now turns to another entry.
Measured IC50 for this entry CS(=O)(=O)CCNCc1ccc(-c2ccc3ncnc(Nc4ccc(OCc5cccc(F)c5)c(Cl)c4)c3c2)o1 [Lapatinib, lapatinib, reference compound] on prostate cancer (PC-3) cell line: 0.13

---

These compounds were tested on EGFR kinase (Homo sapiens, UniProt P00533); IC50 is the recorded read-out.
Sequence (P00533 25-1210): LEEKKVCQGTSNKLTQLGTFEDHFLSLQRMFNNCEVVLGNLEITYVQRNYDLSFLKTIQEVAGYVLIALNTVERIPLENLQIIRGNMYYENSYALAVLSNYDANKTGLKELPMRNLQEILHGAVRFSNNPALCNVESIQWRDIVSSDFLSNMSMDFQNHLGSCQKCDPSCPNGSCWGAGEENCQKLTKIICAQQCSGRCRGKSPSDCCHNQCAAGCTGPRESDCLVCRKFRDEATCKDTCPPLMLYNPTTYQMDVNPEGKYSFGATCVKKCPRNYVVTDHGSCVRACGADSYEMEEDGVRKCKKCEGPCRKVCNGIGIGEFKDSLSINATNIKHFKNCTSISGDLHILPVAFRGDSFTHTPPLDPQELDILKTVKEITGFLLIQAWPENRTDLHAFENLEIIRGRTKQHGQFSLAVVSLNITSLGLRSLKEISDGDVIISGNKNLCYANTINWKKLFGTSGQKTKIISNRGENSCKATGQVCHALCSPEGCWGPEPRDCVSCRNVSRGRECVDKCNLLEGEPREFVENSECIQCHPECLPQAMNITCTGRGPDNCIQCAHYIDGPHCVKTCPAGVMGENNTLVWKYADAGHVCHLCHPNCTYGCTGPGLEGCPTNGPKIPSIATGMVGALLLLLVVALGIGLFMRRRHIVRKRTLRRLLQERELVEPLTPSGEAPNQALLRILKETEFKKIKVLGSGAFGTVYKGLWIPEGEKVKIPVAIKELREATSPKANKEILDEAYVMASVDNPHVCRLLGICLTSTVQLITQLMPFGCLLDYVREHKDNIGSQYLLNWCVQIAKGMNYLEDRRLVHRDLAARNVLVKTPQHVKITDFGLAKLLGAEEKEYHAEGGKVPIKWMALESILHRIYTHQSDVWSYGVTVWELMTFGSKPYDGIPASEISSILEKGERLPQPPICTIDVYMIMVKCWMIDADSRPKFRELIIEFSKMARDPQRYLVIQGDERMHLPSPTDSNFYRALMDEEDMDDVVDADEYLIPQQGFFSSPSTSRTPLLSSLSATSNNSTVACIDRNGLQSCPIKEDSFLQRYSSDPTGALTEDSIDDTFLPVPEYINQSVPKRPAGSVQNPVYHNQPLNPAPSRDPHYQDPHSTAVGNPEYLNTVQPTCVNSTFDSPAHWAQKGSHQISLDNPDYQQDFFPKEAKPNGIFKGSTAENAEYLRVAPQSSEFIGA
State just the number; it will be interpreted in nM.

Cc1ccc(N=Nc2c(N)nc3[se]c(C#N)c(N)c3c2N)cc1 [Compound 12b] = 123

Short answer on EGFR kinase (Homo sapiens, UniProt P00533) for N#Cc1[se]c2nc(N)c(N=Nc3ccccc3)c(N)c2c1N [Compound 12a] , IC50: 301
